- experiment-notes: Cytotoxicity/antiproliferative MTT assay in CHO host cells
- Format: cell-based, hamster
- measurement-setup: Chinese hamster, CHO-K1 cells, Cytotoxicity CC50 CHO cells without FBS, 72 hr, without FBS
experimental-readout: CC50 at 72 h (µM)
Report the value in µM with no unit label.

Field: example entries. Status: answers known.
Lab note: C=C1CC[C@H]2C(=C)CC[C@H]3C(=C)C(=O)O[C@@H]3[C@@H]12 [Dehydrocostus lactone] gave CC50 at 72 h of 12.2

GET /value?item= C=C1C(=O)O[C@@H]2/C=C(\C)CC/C=C(\C)CC[C@@H]12 [Costunolide, (6R, 7S)-costunolide] &field=CC50 at 72 h returns 35.4

Further cases:
In plain terms, C=C1[C@@H]2[C@H]3OC(=O)C(=C)[C@@H]3CCC(=C)[C@@H]2C[C@@H]1O [Zaluzanin C] has a documented CC50 at 72 h of 19.2

====

Attribute: CC50 at 72 h
- experiment-notes: Cytotoxicity/antiproliferative MTT assay in CHO host cells
- Format: cell-based, hamster
- measurement-setup: Chinese hamster, CHO-K1 cells, CC50 CHO cells, 72-hr incubation; anthraquinones (Table 5)
Provide only the numeric value, understood in µM.

As a guide, the following entries are already answered.
Value of measured CC50 at 72 h for the entry O=C1c2ccccc2C(=O)c2c(O)c(O)cc(O)c21 : 59.5

Per the records, this compound ( Cc1c(O)ccc2c1C(=O)c1ccccc1C2=O [compound 14, 2-Hydroxy-1-methylanthraquinone] ) has CC50 at 72 h equal to 88.9

# evaluate next
For this compound ( O=C1c2ccccc2C(=O)c2c(O)ccc(O)c21 ), measured CC50 at 72 h is 38

====

- experiment-notes: Cytotoxicity/antiproliferative MTT assay in CHO host cells
- Assay type: cell-based, hamster
- measurement-setup: Chinese hamster, CHO-K1 cells, Cytotoxicity CC50 CHO cells, 72 hr (Table 3)
Form field: CC50 at 72 h (one value per entry).
Quick reminder: number only, in µM, skip the unit.

Example results:
Record summary for C=C1[C@@H]2[C@H]3OC(=O)C(=C)[C@@H]3CCC(=C)[C@@H]2C[C@@H]1O : reported CC50 at 72 h = 6.6

// CC50 at 72 h value for C=C1CC[C@H]2C(=C)CC[C@H]3C(=C)C(=O)O[C@@H]3[C@@H]12 [Dehydrocostus lactone] : 5.8

In the following, a different compound is considered.
Short answer for C=C1C(=O)O[C@@H]2/C=C(\C)CC/C=C(\C)CC[C@@H]12 [Costunolide, (6R, 7S)-costunolide] : CC50 at 72 h was 10.9

====

- experiment-notes: Cytotoxicity/antiproliferative MTT assay in CHO host cells
- Type: cell-based, hamster
- measurement-setup: Chinese hamster, CHO-K1 cells, CC50 CHO cells, 72-hr incubation; anthraquinones (Table 5)
// values below are reported CC50 at 72 h
Give the number; µM is assumed, so skip it.

CC50 at 72 h reported for this compound O=C1c2cccc(O)c2C(=O)c2c(O)cc(CO)cc21 : 42

More entries:
Quick note, CC50 at 72 h for Cc1cc(O)c2c(c1)C(=O)c1cccc(O)c1C2=O landed at 35.7

====

- System: GFP-expressing T. cruzi (Y) trypomastigotes released from infected CHO cells
- experiment-notes: microbe, parasite or virus in culture
- Format: cell-based, Trypanosoma cruzi
- measurement-setup: Trypanosoma cruzi, CHO, read-out: Percentage inhibition of parasite release at 5 μM (low ROS)
# reported inhibition at 5 µM; entries follow
Express the result in % but write the number alone.

Documented inhibition at 5 µM of O=C1c2ccccc2C(=O)c2c(O)c(O)cc(O)c21 : 48.3

Memo: CC(=O)Oc1cccc2c1C(=O)c1c(OC(C)=O)cc(C(=O)O)cc1C2=O , reported inhibition at 5 µM: 0

According to the records, this molecule Cc1cc(O)c2c(c1)C(=O)c1cccc(O)c1C2=O displays inhibition at 5 µM of 22.6

COc1cc(O)c2c(c1)C(=O)c1cc(C)cc(O)c1C2=O has a reported inhibition at 5 µM of 0

Measured inhibition at 5 µM of O=C1c2cccc(O)c2C(=O)c2c(O)cc(CO)cc21 : 44

Continuing:
Briefly, inhibition at 5 µM measured for O=C1c2cccc(O)c2C(=O)c2cccc(O)c21 : 0

Quick note, inhibition at 5 µM for O=C1c2ccc(O)cc2C(=O)c2ccc(O)cc21 landed at 0

// O=C(O)c1cc(O)c2c(c1)C(=O)c1cccc(O)c1C2=O : inhibition at 5 µM value = 0

inhibition at 5 µM in this record for O=C1c2ccccc2C(=O)c2c1cc(S(=O)(=O)O)c(O)c2O : 0

Field inhibition at 5 µM (entry O=C1c2ccccc2C(=O)c2ccccc21 ) reads 22.2

====

Recorded CC50 at 72 h, one value per entry.
- experiment-notes: Cytotoxicity/antiproliferative MTT assay in CHO host cells
- Format: cell-based, hamster
- measurement-setup: Chinese hamster, CHO-K1 cells

# CC50 at 72 h (compound: C=C[C@@H](O)C#CC#C[C@@H](O)/C=C\CCCCCCC ) is > 100 µM

---
Value of measured CC50 at 72 h for the entry O=C1c2ccccc2C(=O)c2ccccc21 : > 100 µM

====

- Tested on: T. cruzi parasite release from trypomastigote-infected CHO cells
- experiment-notes: microbe, parasite or virus in culture
- Assay type: cell-based
- measurement-setup: Trypanosoma cruzi, read-out: Percentage inhibition of parasite release (serum-free) at 5 μM, 5 μM, serum-free, 6 dpi, CHO host cells
Catalogue of inhibition at 5 µM readings, one per entry.
A number alone suffices; assume %.

Recorded inhibition at 5 µM, per entry:
Item Cc1cc(O)c2c(c1)C(=O)c1cc(O)cc(O)c1C2=O [compound 2, Emodin] was tested on T. cruzi parasite release from trypomastigote-infected CHO cells; the reported inhibition at 5 µM is 61.5

// returns inhibition at 5 µM for C=C1C(=O)O[C@@H]2/C=C(\C)CC/C=C(\C)CC[C@@H]12 [Costunolide, (6R, 7S)-costunolide] with T. cruzi parasite release from trypomastigote-infected CHO cells; value = 0

Given the compound C=C1[C@@H]2[C@H]3OC(=O)C(=C)[C@@H]3CCC(=C)[C@@H]2C[C@@H]1O [Zaluzanin C] and test system T. cruzi parasite release from trypomastigote-infected CHO cells, the measured inhibition at 5 µM is 71

Now examine the next entry.
inhibition at 5 µM for T. cruzi parasite release from trypomastigote-infected CHO cells with input C=C1CC[C@H]2C(=C)CC[C@H]3C(=C)C(=O)O[C@@H]3[C@@H]12 [Dehydrocostus lactone] equals 86.2

====

- System: CHO-K1 cells
- experiment-notes: Cytotoxicity/antiproliferative MTT assay in CHO host cells
- Assay type: cell-based, hamster
- measurement-setup: read-out: CC50 CHO cells; 72-hr incubation; anthraquinones (Table 5)
experimental-readout: CC50
Please answer using the number first and the unit second.

For reference, reported CC50 for O=C1c2ccccc2C(=O)c2c(O)ccc(O)c21 stands at 38.1 µM

====

Measured CC50 at 72 h values are reported for all entries that follow.
- experiment-notes: Cytotoxicity/antiproliferative MTT assay in CHO host cells
- Format: cell-based, hamster
- measurement-setup: Chinese hamster, CHO-K1 cells, Cytotoxicity CC50 CHO cells, 72 hr (Table 3)

Take a look at these entries with their results.
Entry O=C(Cn1ccnc1[N+](=O)[O-])NCc1ccccc1 [BZN, benznidazole, reference compound] , CC50 at 72 h reported as > 100 µM

Briefly, CC50 at 72 h measured for Cc1cc(O)c2c(c1)C(=O)c1cc(O)cc(O)c1C2=O : > 100 µM

Kindly review the next molecule as well.
Form: molecule = CC(=O)c1c(C)cc2cccc(O)c2c1O ; CC50 at 72 h = > 100 µM

====

- Tested on: GFP-expressing T. cruzi (Y) trypomastigotes released from infected CHO cells
- experiment-notes: microbe, parasite or virus in culture
- Format: cell-based, Trypanosoma cruzi
- measurement-setup: Trypanosoma cruzi, CHO, read-out: Percentage inhibition of parasite release at 5 μM (low ROS)
The entries below come with measured inhibition at 5 µM values attached.

Entry O=C1c2ccccc2C(=O)c2c1ccc(O)c2O [compound 4, Alizarin] ; inhibition at 5 µM = 0%

Per the records, this compound ( Cc1cc2c(cc1O)C(=O)c1ccccc1C2=O [compound 13, 2-Hydroxy-3-methylanthraquinone] ) has inhibition at 5 µM equal to 0%

====

- Test system: GFP-expressing T. cruzi (Y) trypomastigotes released from infected CHO cells
- experiment-notes: microbe, parasite or virus in culture
- Type: cell-based, Trypanosoma cruzi
- measurement-setup: Trypanosoma cruzi, CHO, read-out: Percentage inhibition of parasite release at 5 μM (low ROS)
Reported inhibition at 5 µM values follow for various compounds
Give the number; % is assumed, so skip it.

Some compounds with recorded inhibition at 5 µM:
The compound listed as O=C1c2cccc(O)c2C(=O)c2c(O)cccc21 [compound 8, Dantron] has a reported inhibition at 5 µM of 0

The compound listed as Cc1c(O)ccc2c1C(=O)c1ccccc1C2=O [compound 14, 2-Hydroxy-1-methylanthraquinone] has a reported inhibition at 5 µM of 20.9

inhibition at 5 µM reading for Cc1cc(O)c2c(c1)C(=O)c1cc(O)cc(O)c1C2=O [compound 2, Emodin] : 24.8

More entries:
O=C1c2ccccc2C(=O)c2c(O)ccc(O)c21 [compound 6, Quinizarin] yielded inhibition at 5 µM of 68.5

Value of inhibition at 5 µM reported for the compound COc1c(O)cc2c(c1O)C(=O)c1c(cc(C)c(O)c1OC)C2=O [compound 18, Aurantio-obtusin] is 0

COc1cc(N)c2c(c1N)C(=O)c1ccccc1C2=O [compound 17, Disperse Red11] has a reported inhibition at 5 µM of 46.8

Given item O=C(Cn1ccnc1[N+](=O)[O-])NCc1ccccc1 [BZN, benznidazole, reference compound] , the value recorded as its inhibition at 5 µM is 84.9
